Experimental details: Pharmacokinetic analysis of granisetron and olanzapine formulation in canines (plasma concentration by LC/MS/MS)
Type: in vivo
Measurement conditions: both sexes, dog, 120 hrs, dogs, same formulation, approx. 5 mg granisetron, read-out: Average Plasma Concentrations of Granisetron
Recorded endpoint: concentration at 120 h (ng/mL)
One number for each entry, in ng/mL.

IN: Reported concentration at 120 h for CN1C2CCCC1CC(NC(=O)c1nn(C)c3ccccc13)C2 (stereo not shown) : what is it?
OUT: 0.4

----------
Experimental details: Pharmacokinetic analysis of granisetron and olanzapine formulation in canines (plasma concentration by LC/MS/MS)
Type: in vivo
Measurement conditions: both sexes, dog, 8 hrs, dogs, same formulation, approx. 5 mg granisetron, read-out: Average Plasma Concentrations of Granisetron
Recorded endpoint: concentration at 8 h (ng/mL)
One number for each entry, in ng/mL.

IN: Reported concentration at 8 h for CN1C2CCCC1CC(NC(=O)c1nn(C)c3ccccc13)C2 (stereo not shown) : what is it?
OUT: 8.02

----------
Experimental details: Pharmacokinetic analysis of granisetron and olanzapine formulation in canines (plasma concentration by LC/MS/MS)
Type: in vivo
Measurement conditions: both sexes, dog, 6 hrs, dogs, same formulation, approx. 5 mg granisetron, read-out: Average Plasma Concentrations of Granisetron
Recorded endpoint: concentration at 6 h (ng/mL)
Numbers only, in ng/mL.

IN: Reported concentration at 6 h for CN1C2CCCC1CC(NC(=O)c1nn(C)c3ccccc13)C2 (stereo not shown) : what is it?
OUT: 10.7

----------
Experimental details: Pharmacokinetic analysis of granisetron and olanzapine formulation in canines (plasma concentration by LC/MS/MS)
Format: in vivo
Measurement conditions: both sexes, dog, 1 hr, dogs, same formulation, approx. 5 mg granisetron, read-out: Average Plasma Concentrations of Granisetron
Recorded endpoint: concentration at 1 h (ng/mL)
Numbers only, in ng/mL.

IN: Reported concentration at 1 h for CN1C2CCCC1CC(NC(=O)c1nn(C)c3ccccc13)C2 (stereo not shown) : what is it?
OUT: 14.3

----------
Experimental details: Pharmacokinetic analysis of granisetron and olanzapine formulation in canines (plasma concentration by LC/MS/MS)
Assay type: in vivo
Measurement conditions: both sexes, dog, 48 hrs, dogs, same formulation, approx. 5 mg granisetron, read-out: Average Plasma Concentrations of Granisetron
Recorded endpoint: concentration at 48 h
Number plus unit, in that order.

IN: Reported concentration at 48 h for CN1C2CCCC1CC(NC(=O)c1nn(C)c3ccccc13)C2 (stereo not shown) : what is it?
OUT: 3.27 ng/mL

----------
Experimental details: Pharmacokinetic analysis of granisetron and olanzapine formulation in canines (plasma concentration by LC/MS/MS)
Assay type: in vivo
Measurement conditions: both sexes, dog, 24 hrs, dogs, same formulation, approx. 5 mg granisetron, read-out: Average Plasma Concentrations of Granisetron
Recorded endpoint: concentration at 24 h (ng/mL)
Answers are plain numbers, in ng/mL.

IN: Reported concentration at 24 h for CN1C2CCCC1CC(NC(=O)c1nn(C)c3ccccc13)C2 (stereo not shown) : what is it?
OUT: 6.82

----------
Experimental details: Pharmacokinetic analysis of granisetron and olanzapine formulation in canines (plasma concentration by LC/MS/MS)
Assay type: in vivo
Measurement conditions: both sexes, dog, 96 hrs, dogs, same formulation, approx. 5 mg granisetron, read-out: Average Plasma Concentrations of Granisetron
Recorded endpoint: concentration at 96 h (ng/mL)
One number for each entry, in ng/mL.

IN: Reported concentration at 96 h for CN1C2CCCC1CC(NC(=O)c1nn(C)c3ccccc13)C2 (stereo not shown) : what is it?
OUT: 0.95

----------
Experimental details: Pharmacokinetic analysis of granisetron and olanzapine formulation in canines (plasma concentration by LC/MS/MS)
Format: in vivo
Measurement conditions: both sexes, dog, 72 hrs, dogs, same formulation, approx. 5 mg granisetron, read-out: Average Plasma Concentrations of Granisetron
Recorded endpoint: concentration at 72 h (ng/mL)
One number for each entry, in ng/mL.

IN: Reported concentration at 72 h for CN1C2CCCC1CC(NC(=O)c1nn(C)c3ccccc13)C2 (stereo not shown) : what is it?
OUT: 1.54

----------
Experimental details: Pharmacokinetic analysis of granisetron and olanzapine formulation in canines (plasma concentration by LC/MS/MS)
Format: in vivo
Measurement conditions: both sexes, dog, 3 hrs, dogs, same formulation, approx. 5 mg granisetron, read-out: Average Plasma Concentrations of Granisetron
Description: Plasma samples were taken from each dog at the following time points: 0, 0.5, 1, 3, 6, 8, 24, 48, 72, 96, 120 hours, and frozen.
Recorded endpoint: concentration at 3 h (ng/mL)
One number for each entry, in ng/mL.

IN: Reported concentration at 3 h for CN1C2CCCC1CC(NC(=O)c1nn(C)c3ccccc13)C2 (stereo not shown) : what is it?
OUT: 14.2
